- assayed target: T1, PDZD2_2, O15018
- T1 sequence (O15018 329-429, limits assumed, looked up): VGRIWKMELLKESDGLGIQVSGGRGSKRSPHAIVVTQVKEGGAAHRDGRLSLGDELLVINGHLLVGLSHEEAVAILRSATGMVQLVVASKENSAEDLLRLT
- procedure details: holdup assay
- Set-up: key: below the threshold = too weak to quantify, mostly under pKd 3.1 to 4
- measurement conditions: plain residues with an end cap or a label only (N-terminal biotin on a linker: ahx)
measurement kind: pKd
Reply with the value as a number alone.

Exam item: Please list pKd recorded for the binder QDEKVKESYV [ABCA1, O95477]
Marked response: 5.66

Exam item: # return recorded pKd for entry HTHSYIETHV [CNKSR2, Q8WXI2]
Marked response: 4.24

Exam item: Provide one value: measured pKd of TESNLQTSSC [CGN, Q9P2M7]
Marked response: 4.1

The record that follows has no pKd shown yet.
Exam item: Provide pKd value for the following binder: QPRTWLQSPV [RTKN, Q9BST9]
Marked response: 4.71
